Conditions: basic group

# Molecule, pKa
records = [
    ("OCC[NH+](CCO)Cc1nc2ccccc2[nH]1", 2.15),
    ("[O-]c1nccc2c1cnc1ccccc12", 11.3),
    ("[O-]c1ccc(O)c2ccccc12", 11),
    ("c1cnc2nc[nH]c2c1", 3.95),
    ("Nc1cccc2ncccc12", 5.46),
    ("CCCNc1c2ccccc2nc2cccc([N+](=O)[O-])c12", 7.2),
    ("Cc1cc(N)ccc1-c1ccc(N)cc1C", 4.9),
    ("C=CCN(CC=C)CCCN(CC=C)CC=C", 8.8),
    ("COc1ccc(-c2cn3ccnc3[nH]2)c(OC)c1", 6.76),
    ("CNc1cccnc1", 6.41),
    ("NCCNCCO", 9.67),
    ("COC(=O)c1ccc(N)cc1", 2.44),
    ("c1ccc(C(OCCN2CCCCC2)c2ccccc2)cc1", 8.03),
    ("C[NH+](C)CCCNc1ccnc2ccc([N+](=O)[O-])cc12", 6.99),
    ("CCC(=O)C(CC(C)N(C)C)(c1ccccc1)c1ccccc1 (stereo not given)", 8.62),
    ("Cc1cnc2c([S-])ncnc2n1", 7.02),
    ("OC[C@H]1CCN2CCC[C@@H]12", 10.9),
    ("CN(C)c1cc[nH+]cc1", -7.78),
    ("CC(C)([NH3+])CN", 6.79),
    ("CCCCNCCCCCCNCCCC", 11.3),
    ("c1ccc(-c2cccc[nH+]2)nc1", 1.47),
    ("[O-]c1nccc2nccnc12", 11.1),
    ("c1ccc(-n2cccn2)[nH+]c1", -4.8),
    ("C=CCCN1C[C@H]2C[C@@H](C1)c1cccc([O-])[n+]1C2", 7),
    ("c1ccc(-c2ccncc2)cc1", 5.3),
    ("CC[C@H]1[C@H](CC2=N/C(=C/c3[nH]c(C[C@@H]4NC(=O)[C@H](CC)[C@H]4C)c(C)c3CCC(=O)[O-])C(CCC(=O)[O-])=C2C)NC(=O)[C@@H]1C", 7.6),
    ("CCCNCC[NH2+]CCC", 7.53),
    ("Cc1ncc(CO)c(C)c1OCc1ccccc1", 5.52),
    ("c1ccc(-c2ccc3nc(C[NH+]4CCOCC4)cn3n2)cc1", 1.4),
    ("Cc1[nH]c(C)c(C)c1C", 3.77),
    ("Cc1cc(N)ccn1", 9.44),
    ("C#CCNN", 5.46),
    ("[NH3+]CCc1ccncc1", 4.98),
    ("CCCCN1CCCCC1", 10.5),
    ("O=C([O-])C(NCCNC(C(=O)[O-])c1ccccc1[O-])c1ccccc1[O-] (stereo not given)", 11.7),
    ("O=C(Nc1ccncc1)c1ccccc1", 5.32),
    ("CCN(CC)Cc1ccccc1", 9.44),
    ("CC(C)CCNCCC(C)C", 10.9),
    ("[NH3+]CCNCCO", 6.66),
    ("Cc1ccc2ccc3ccc(C)nc3c2n1", 6.15),
    ("C[C@@H]1CCC[C@H](C)N1", 11),
    ("CC1(C)CCC(C2CCC(C)(C)[NH2+]2)N1 (stereo not given)", 6.95),
    ("Cc1cc(-c2[nH]cc[nH+]2)n[nH]1", 1.5),
    ("COc1ccc2c3c1O[C@H]1CCC[C@H]4[C@@H]([C@@H]2O)N(C)CC[C@]314", 9.41),
    ("Cc1nnc(C)c(C)c1C", 5.36),
    ("N/C(=N\\O)c1ccccc1N", 4.5),
    ("CCCCCCCNCc1ccc(C)cc1", 10),
    ("N[C@H]1CCCC[C@H]1C(=O)Oc1ccc([N+](=O)[O-])cc1", 8.42),
    ("CC(N)C/C(N)=N/O (stereo not given)", 9.15),
    ("Cc1ccnnc1", 3.22),
    ("Nc1cnc2c(N)nc(N)nc2n1", 6.3),
    ("O=[N+]([O-])c1cccc2[nH]ncc12", 0.42),
    ("Nc1nc(N)nc([S-])n1", 7.8),
    ("CN[C@@H]1C[C@@H]1[NH2+]C", 3.56),
    ("N#Cc1cccnc1", 1.48),
]

Hey, just so you know, these numbers are from the pKa sets of Baltruschat and Czodrowski (2020).
